The reported numbers originate from the supplement of paper PMC11208160.

experiment: recombinant barcode read abundance after kanamycin selection (control-corrected) (log10(CPM+1)); higher = more efficient recombination; sequences stand for … in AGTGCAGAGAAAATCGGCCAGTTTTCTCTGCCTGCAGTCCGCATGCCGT…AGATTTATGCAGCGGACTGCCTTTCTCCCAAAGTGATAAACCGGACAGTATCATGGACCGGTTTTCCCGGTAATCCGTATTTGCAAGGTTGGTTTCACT; site = the 11-nt target;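 further: IS621 recombinase and bridge RNA in Escherichia coli cells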
The entries below are paired with their reported recombinant barcode read abundance (log10).
Number only, please.

For orientation, consider the following solved cases.
INSERT INTO measurements (sequence_entry, endpoint_result) VALUES
  ('GAGTTTGCTTGGGTTCTAACCTGTTGCCT (site GAGTTTGCTAG)', 0.572),
  ('CGGCTTCCTTGGGTTCTAACCTGTTGCTT (site CGGCTTCCTAA)', 0.104),
  ('GGTTGAACTTGGGTTCTAACCTGTTGCAT (site GGTTGAACTAT)', 0.0521);

(Q) For CTATGTGCTTGGGTTCTAACCTGTTGCCT (site CTATGTGCTAC) , what is its reported recombinant barcode read abundance (log10)?
(A) 0.298

(Q) For CGAACGACTTGGGTTCTAACCTGTTGCTT (site CGAACGACTAG) , what is its reported recombinant barcode read abundance (log10)?
(A) 0.113

(Q) For GGATAGACTTGGGTTCTAACCTGTTGCGT (site GGATAGACTAC) , what is its reported recombinant barcode read abundance (log10)?
(A) 1.95
